Reticulocytes (RETIC), average: recorded values
System: reticulocytes
Assay: Effect on reticulocytes of normal mice
Assay type: in vivo, Balb/c mice
Parameters: unit not given here
Details: 10 mg/kg p.o., once; 72 h after administration

As a guide, the following entries are already answered.
O=C(O)CNC(=O)c1nc(Cl)c2nc(Oc3cccc(Cl)c3)ccc2c1O :: 5.87
O=C(O)CNC(=O)c1nc(Br)c2nc(Oc3ccccc3Cl)ccc2c1O :: 5.62
O=C(O)CNC(=O)c1nc(Cl)c2nc(Oc3ccccc3Cl)ccc2c1O :: 6.80
O=C(O)CNC(=O)c1nc(Br)c2nc(Oc3ccc(Cl)cc3)ccc2c1O :: 7.30
O=C(O)CNC(=O)c1nc(Br)c2nc(Oc3cccc(Cl)c3)ccc2c1O :: 5.63
O=C(O)CNC(=O)c1nc(Cl)c2nc(Oc3ccc(Cl)cc3)ccc2c1O :: 6.15

(Q) Dear colleague, I am looking for the recorded Reticulocytes (RETIC), average of the following compound: Cc1nc(C(=O)NCC(=O)O)c(O)c2ccc(Oc3ccccc3)cc12 [FG-4592, reference compound]
(A) 4.73

(Q) For the compound shown here, O=C(O)CNC(=O)c1nc(Cl)c2nc(Oc3ccccc3)ccc2c1O , give the reported Reticulocytes (RETIC), average.
(A) 8.62

(Q) State the recorded Reticulocytes (RETIC), average for this entry: O=C(O)CNC(=O)c1nc(Br)c2nc(Oc3ccccc3)ccc2c1O
(A) 7.28

###

Each entry below carries its recorded IC50.
Biological target: PHD3 (Homo sapiens (Human))
Sequence (Q9H6Z9 whole entry): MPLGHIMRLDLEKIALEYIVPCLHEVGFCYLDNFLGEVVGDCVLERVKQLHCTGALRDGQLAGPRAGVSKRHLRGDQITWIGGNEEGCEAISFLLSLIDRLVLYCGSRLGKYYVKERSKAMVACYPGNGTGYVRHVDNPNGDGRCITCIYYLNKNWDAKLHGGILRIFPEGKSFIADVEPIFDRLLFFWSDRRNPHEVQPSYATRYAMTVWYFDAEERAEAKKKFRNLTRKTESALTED
Assay: PHD enzyme assay (Eu-VBC TR-fluorescence)
Assay type: biochemical
Kindly answer with a numeric value in nM, unit omitted.

Solved cases (3 shown):
O=C(O)CNC(=O)c1nc(Cl)c2nc(Oc3ccccc3)ccc2c1O :: 72.8
O=C(O)CNC(=O)c1nc(Cl)c2cc(Oc3ccccc3)ccc2c1O [Comparative Example 1, reference compound] :: 561
O=C(O)CNC(=O)c1nc(Br)c2nc(Oc3ccccc3)ccc2c1O :: 95.6

(Q) Consider the compound O=C(O)CNC(=O)c1nc(Br)c2cc(Oc3ccccc3)ccc2c1O [Comparative Example 3, reference compound] and give its measured IC50.
(A) 544

(Q) I would be grateful if you could share the reported IC50 for O=C(O)CNC(=O)c1ncc2nc(Oc3ccccc3)ccc2c1O [Comparative Example 2, reference compound] .
(A) 492

###

Molecular target: CYP3A4-M (Homo sapiens (Human))
Sequence (P08684 whole entry): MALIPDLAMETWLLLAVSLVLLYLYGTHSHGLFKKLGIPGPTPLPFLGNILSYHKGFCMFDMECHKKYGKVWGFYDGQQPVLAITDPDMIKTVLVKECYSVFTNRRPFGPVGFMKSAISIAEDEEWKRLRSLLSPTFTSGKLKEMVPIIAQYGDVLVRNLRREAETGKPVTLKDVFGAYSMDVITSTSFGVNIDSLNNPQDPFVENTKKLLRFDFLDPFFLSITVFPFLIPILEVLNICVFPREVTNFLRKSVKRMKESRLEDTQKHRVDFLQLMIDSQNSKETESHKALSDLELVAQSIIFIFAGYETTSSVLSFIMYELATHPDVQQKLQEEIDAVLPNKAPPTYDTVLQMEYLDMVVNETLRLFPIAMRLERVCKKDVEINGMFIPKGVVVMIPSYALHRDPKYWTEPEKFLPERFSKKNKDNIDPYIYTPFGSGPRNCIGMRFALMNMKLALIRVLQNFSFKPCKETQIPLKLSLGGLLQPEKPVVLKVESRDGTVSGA
Assay: CYP enzyme inhibition assay
Type: in vitro ADME
We begin with a simple list: items and their reported IC50.

The examples below pair each entry with its known result.
O=C(O)CNC(=O)c1nc(Br)c2nc(Oc3ccccc3)ccc2c1O [Link-121] :: > 50 µM
O=C(O)CNC(=O)c1nc(Cl)c2nc(Oc3cccc(Cl)c3)ccc2c1O [Link-126] :: > 50 µM

(Q) // lookup IC50 for O=C(O)CNC(=O)c1nc(Cl)c2nc(Oc3ccccc3Cl)ccc2c1O [Link-124]
(A) > 50 µM

###

Target: PHD2 (Homo sapiens (Human), UniProt Q9GZT9)
Sequence (Q9GZT9 whole entry): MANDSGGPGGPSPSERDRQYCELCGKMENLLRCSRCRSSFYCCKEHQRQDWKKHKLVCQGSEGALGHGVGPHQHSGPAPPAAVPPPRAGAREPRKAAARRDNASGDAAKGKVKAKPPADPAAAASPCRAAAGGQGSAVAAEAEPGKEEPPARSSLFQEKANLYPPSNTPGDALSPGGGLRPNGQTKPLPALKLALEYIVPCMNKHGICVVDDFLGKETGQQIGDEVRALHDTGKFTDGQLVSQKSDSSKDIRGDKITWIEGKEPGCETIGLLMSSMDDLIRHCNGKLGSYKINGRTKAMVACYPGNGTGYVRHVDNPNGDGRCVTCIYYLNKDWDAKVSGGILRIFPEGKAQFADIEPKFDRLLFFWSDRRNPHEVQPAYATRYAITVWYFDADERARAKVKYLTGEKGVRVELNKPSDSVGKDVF
Assay: PHD enzyme assay (Eu-VBC TR-fluorescence)
Assay type: biochemical
readout: IC50 (nM)
Numeric answer only, unit nM assumed.

(Q) Could you tell me which IC50 is on file for O=C(O)CNC(=O)c1nc(Br)c2nc(Oc3ccccc3)ccc2c1O ?
(A) 353

(Q) Name the recorded IC50 for O=C(O)CNC(=O)c1nc(Br)c2cc(Oc3ccccc3)ccc2c1O [Comparative Example 3, reference compound] .
(A) 951

(Q) Report IC50 for O=C(O)CNC(=O)c1nc(Cl)c2nc(Oc3ccccc3)ccc2c1O please.
(A) 207
